The origin of these recorded values is patent US7625948B2.

# Tested on: HepG2 cells
# EXPERIMENT SUMMARY: Test Example 2: inhibition of apolipoprotein B secretion from HepG2 cells, ELISA (also used for metabolites in Test Example 8)
# Assay type: cell-based
# EXPERIMENTAL SETUP: Homo sapiens, 24 hours, apo B in supernatant by ELISA, read-out: Test Example 2 Inhibition of apo B secretion IC50
MEASURED ENDPOINT: IC50 (nM)

Worked examples follow.
CC(C(=O)OCC1(C(=O)NCC(F)(F)F)c2ccccc2-c2ccccc21)c1ccc(NC(=O)c2ccccc2-c2ccc(C(F)(F)F)cc2)cc1 (stereo not drawn) | 330
CCNC(=O)C(COC(=O)Cc1ccc(NC(=O)c2ccccc2-c2ccc(C(F)(F)F)cc2)c(C(=O)NC)c1)(C(=O)NCC)c1ccccc1 | 2
CC(C)COC(=O)C(COC(=O)Cc1ccc(NC(=O)c2ccccc2-c2ccc(C(F)(F)F)cc2)cc1)(C(=O)OCC(C)C)c1ccccc1 | 90
CCOC(=O)C(COC(=O)Cc1ccc(NC(=O)c2ccccc2-c2ccc(C(F)(F)F)cc2)c(Br)c1)(C(=O)OCC)c1ccccc1 | 3.2
CCOC(=O)C(COC(=O)Cc1ccc(NC(=O)c2ccccc2-c2ccc(C(F)(F)F)cc2)cc1C(F)(F)F)(C(=O)OCC)c1ccccc1 | 100

1. CCOC(=O)C(COC(=O)Cc1cc(C(=O)N(C)C)c(NC(=O)c2ccccc2-c2ccc(C(F)(F)F)cc2)c(Cl)c1F)(C(=O)OCC)c1ccccc1
2. CCNC(=O)C(CCOC(=O)Cc1ccc(NC(=O)c2ccccc2-c2ccc(C(F)(F)F)cc2)c(OC)c1)(C(=O)NCC)c1ccccc1
Of 1 and 2 , which one carries the higher reported IC50? Please indicate the selected item by its label.
1
(1: 57 nM, 2: 0.63 nM)

1. CCOC(=O)C(COC(=O)Cc1ccc(NC(=O)c2ccccc2-c2ccc(C(F)(F)F)cc2)c(C(=O)N(C)C)c1)(C(=O)OCC)c1cccs1
2. CCNC(=O)C(COC(=O)Cc1ccc(NC(=O)c2ccccc2-c2ccc(C(F)(F)F)cc2)c(CC)c1)(C(=O)NCC)c1ccccc1
Would you let me know which has the greater IC50 value, 1 or 2 ? Lab note: record the label of whichever item you select.
2
(2: 0.65 nM, 1: 0.2 nM)

----------
Parameter: inhibition in vivo at 3 mg/kg. Scope: all listed entries.
# Test system: Syrian hamsters
# EXPERIMENT SUMMARY: Test Example 3: olive oil-loading test (inhibition of fat absorption, plasma TG)
# Type: in vivo
# EXPERIMENTAL SETUP: Mesocricetus auratus, po; 3 mg/kg p.o.; plasma TG 4 hours after olive oil; read-out: Test Example 3 Inhibition of fat absorption after olive oil-loading in Hamster Inhibition rate (%)
Hi! Could you send only the number? It should be in %, unit omitted.

CCNC(=O)C(CCOC(=O)Cc1ccc(NC(=O)c2ccccc2-c2ccc(C(F)(F)F)cc2)c(OC(C)C)c1)(C(=O)NCC)c1ccccc1 | 75
CCNC(=O)C(COC(=O)Cc1ccc(NC(=O)c2ccccc2-c2ccc(C(F)(F)F)cc2)c(C(=O)N(CC)CC)c1)(C(=O)NCC)c1ccccc1 | 89
CCNC(=O)C(COC(=O)Cc1ccc(NC(=O)c2ccccc2-c2ccc(C(F)(F)F)cc2)c(C(=O)NC)c1)(C(=O)NCC)c1ccccc1 | 68
COC(=O)C(COC(=O)Cc1ccc(NC(=O)c2ccccc2-c2ccc(C(F)(F)F)cc2)c(C(=O)N(C)C)c1)(C(=O)OC)c1ccccc1 | 68
CCNC(=O)C(COC(=O)Cc1ccc(NC(=O)c2ccccc2-c2ccc(C(F)(F)F)cc2)c(C(=O)OCC)c1)(C(=O)NCC)c1ccccc1 | 54

In the following, a different compound is considered.
# value lookup — system Syrian hamsters, readout inhibition in vivo at 3 mg/kg, item CCOC(=O)C(COC(=O)Cc1ccc(NC(=O)c2ccccc2-c2ccc(C(F)(F)F)cc2)c(C(=O)N(C)CC)c1)(C(=O)OCC)c1ccccc1
70

----------
# Inhibition of liver TG release in Hamster, Inhibition rate(%) per record follows
# System: Syrian hamsters
# EXPERIMENT SUMMARY: Test Example 4: liver TG release inhibition test (Triton WR 1339)
# Type: in vivo
# EXPERIMENTAL SETUP: 100 mg/kg p.o., Triton WR 1339, plasma TG release velocity over 2 h, fasted Syrian hamsters

Bench note: what Inhibition of liver TG release in Hamster, Inhibition rate(%) did COC(=O)C(COC(=O)Cc1ccc(NC(=O)c2ccccc2-c2ccc(C(F)(F)F)cc2)c(C(=O)N(C)C)c1)(C(=O)OC)c1ccccc1 show?
6(100) %

Same question, O=C(Cc1ccc(NC(=O)c2ccccc2-c2ccc(C(F)(F)F)cc2)cc1)OCC1(C(=O)NCC(F)(F)F)c2ccccc2-c2ccccc21 this time
0(100) %

Please answer likewise for CCNC(=O)C(COC(=O)Cc1ccc(NC(=O)c2ccccc2-c2ccc(C(F)(F)F)cc2)c(OC)c1)(C(=O)NCC)c1ccccc1
18(100) %

Do the same for CCOC(=O)C(COC(=O)Cc1ccc(NC(=O)c2ccccc2-c2ccc(C(F)(F)F)cc2)c(C(=O)N(C)C)c1)(C(=O)OCC)c1ccccc1 please
0(100) %

----------
# Test system: HepG2 cells
# EXPERIMENT SUMMARY: Test Example 2: inhibition of apolipoprotein B secretion from HepG2 cells, ELISA (also used for metabolites in Test Example 8)
# Type: cell-based
# EXPERIMENTAL SETUP: Homo sapiens, 24 hours, apo B in supernatant by ELISA, read-out: Test Example 2 Inhibition of apo B secretion IC50
MEASURED ENDPOINT: IC50 (µM)

CCOC(=O)C(CCOC(=O)c1ccc(NC(=O)c2ccccc2-c2ccc(C(F)(F)F)cc2)cc1)(C(=O)OCC)c1ccccc1 [Example 6-14] | 0.087
CCOC(=O)C(COC(=O)Cc1ccc(NC(=O)c2ccccc2-c2ccc(C(F)(F)F)cc2)c(N(C)C)c1)(C(=O)OCC)c1ccccc1 [Example 4-6] | 0.0075
O=C(OCCC(C(=O)NCC(F)(F)F)c1ccccc1)c1ccc(NC(=O)c2ccccc2-c2ccc(C(F)(F)F)cc2)cc1 (stereo not drawn) [Example 6-10] | 0.87
CC(C)N[C@@H](COC(=O)Cc1ccc(NC(=O)c2ccccc2-c2ccc(C(F)(F)F)cc2)c(C(=O)N(C)C)c1)c1ccccc1 [Example 2-29] | 0.091
CCNC(=O)C(CCOC(=O)c1ccc(NC(=O)c2ccccc2-c2ccc(C(F)(F)F)cc2)cc1)(C(=O)NCC)c1ccccc1 [Example 6-19] | 0.035
CCOC(=O)C(COC(=O)Cc1ccc(NC(=O)c2ccccc2Oc2ccc(C(F)(F)F)cc2)c(C(=O)N(C)C)c1)(C(=O)OCC)c1ccccc1 [Example 2-99] | 0.019
CCOC(=O)C(COC(=O)Cc1ccc(NC(=O)c2ccccc2-c2ccc(C(F)(F)F)cc2)c(OC)c1)(C(=O)OCC)c1ccccc1 [Example 3-4] | 0.013
O=C(N[C@H]1CC[C@@H](C(=O)OCCC2(C(=O)NCC(F)(F)F)c3ccccc3-c3ccccc32)CC1)c1ccccc1-c1ccc(C(F)(F)F)cc1 [Example 7-2] | 0.026

1. CCNC(=O)C(COC(=O)Cc1ccc(NC(=O)c2ccccc2-c2ccc(C(F)(F)F)cc2)c(OCc2ccccc2)c1)(C(=O)NCC)c1ccccc1 [Example 3-13]
2. CCNC(=O)C(COC(=O)Cc1ccc(NC(=O)c2ccccc2-c2ccc(C(F)(F)F)cc2)c(C(=O)N(C)C)c1)c1ccccc1 (stereo not drawn) [Example 2-21]
3. CCNC(=O)C(COC(=O)Cc1ccc(NC(=O)c2ccccc2-c2ccc(C(F)(F)F)cc2)c(OC(C)C)c1)(C(=O)NCC)c1ccccc1 [Example 3-10]
4. CCNC(=O)C(COC(=O)Cc1ccc(NC(=O)c2ccccc2-c2ccc(C(F)(F)F)cc2)c(C(=O)N(CC)CC)c1)(C(=O)NCC)c1ccccc1 [Example 2-8]
Number of compounds to sort: 4. Sort criterion: IC50, ascending. List the labels according to the requested ordering.
3, 4, 1, 2

----------
# Test system: Syrian hamsters
# EXPERIMENT SUMMARY: Test Example 3: olive oil-loading test (inhibition of fat absorption, plasma TG)
# Assay type: in vivo
# EXPERIMENTAL SETUP: Mesocricetus auratus, po; 3 mg/kg p.o.; plasma TG 4 hours after olive oil; read-out: Test Example 3 Inhibition of fat absorption after olive oil-loading in Hamster Inhibition rate (%)
MEASURED ENDPOINT: inhibition in vivo at 3 mg/kg (%)
Numbers only here, please. The scale is %.

Here is how some molecules turned out for inhibition in vivo at 3 mg/kg.
CCC(=O)N[C@H](COC(=O)Cc1ccc(NC(=O)c2ccccc2-c2ccc(C(F)(F)F)cc2)c(C(=O)N(C)C)c1)c1ccccc1 | 55
CCOC(=O)C(COC(=O)Cc1ccc(NC(=O)c2ccccc2-c2ccc(C(F)(F)F)cc2)c(C(=O)N2CCCC2)c1)(C(=O)OCC)c1ccccc1 | 61
CCNC(=O)C(CCOC(=O)Cc1ccc(NC(=O)c2ccccc2-c2ccc(C(F)(F)F)cc2)c(OC)c1)(C(=O)NCC)c1ccccc1 | 52
CCNC(=O)C(CCCOC(=O)Cc1ccc(NC(=O)c2ccccc2-c2ccc(C(F)(F)F)cc2)c(C(=O)N(C)C)c1)(C(=O)NCC)c1ccccc1 | 58
CCNC(=O)C(CCOC(=O)Cc1ccc(NC(=O)c2ccccc2-c2ccc(C(F)(F)F)cc2)c(OCC)c1)(C(=O)NCC)c1ccccc1 | 60

Reported inhibition in vivo at 3 mg/kg for CCNC(=O)C(COC(=O)Cc1ccc(NC(=O)c2ccccc2-c2ccc(C(F)(F)F)cc2)c(C(=O)OC)c1)(C(=O)NCC)c1ccccc1 : what is it?
70
